pIC50: −log10 of the molar value.
// merged dataset of pIC50 values, system = Tyrosine-protein kinase JAK2 (Homo sapiens), multiple refs
measurement label: pIC50

{"molecule": "NC(=O)c1cc(-c2cc(CN3CCOCC3)co2)nc2c1[nH]c1cc(N3CCOCC3)ccc12", "prefix operator": "=", "measurement": 8.22}
{"molecule": "N#CCC(C1CCCC1)n1cc(-c2ccnc(Nc3ccc(C(=O)N4CC[C@@H](O)C4)cc3)n2)cn1 (mixture of isomers)", "prefix operator": ">", "measurement": 7.00}
{"molecule": "CCC(=O)c1cnc(Nc2cnc(CN3CCCC3)cn2)cc1Nc1cccc(-c2ncn(C)n2)c1OC", "prefix operator": "≤", "measurement": 6.30}
{"molecule": "Cn1cc(Nc2ncc(Cl)c(NC3CC4CN(C(=O)C(F)(F)F)CC4C3)n2)cn1 (centres unmarked)", "prefix operator": "=", "measurement": 7.77}
{"molecule": "CCC(=O)c1cnc(Nc2ccc(CN3CCCC3)nn2)cc1Nc1cccc(-c2ncn(C)n2)c1OC", "prefix operator": "≤", "measurement": 6.30}
{"molecule": "O=C(Nc1cccc(C(F)(F)F)c1)c1ccc(Cl)c(-c2ccc3c(c2)[nH]c2ncncc23)c1", "prefix operator": "≥", "measurement": 6.30}
{"molecule": "N#Cc1cc(-c2ncnc(Nc3ccc(N4CCN(C5COC5)CC4)cc3)n2)ccc1O[C@H]1CCN(C(=O)[C@@H]2CSC(=O)N2)C[C@H]1F", "prefix operator": "=", "measurement": 6.54}
{"molecule": "CNC(=O)c1cnc2[nH]ccc2c1NN1CCC[C@H](C(=O)NCC(F)(F)F)C1", "prefix operator": "=", "measurement": 7.73}
{"molecule": "CCCNC(=O)[C@H]1CCCN(Nc2c(C(N)=O)cnc3[nH]ccc23)C1", "prefix operator": "=", "measurement": 7.26}
{"molecule": "CNC(=O)c1csc(-c2cnc3[nH]ccc3c2N[C@H]2C[C@@H](NS(=O)(=O)c3cccc(C#N)c3)C2)n1", "prefix operator": "≥", "measurement": 8.00}
{"molecule": "C[C@@H]1CN(C(=O)CO)CC(F)(F)[C@H]1Oc1ccc(-c2ncnc(Nc3ccc(N4CCN(C5COC5)CC4)cc3)n2)cc1C#N (relative stereo)", "prefix operator": "=", "measurement": 6.85}
{"molecule": "CN(c1ncccc1Cn1ccc2cnc(Nc3ccc(NCCO)cc3)nc21)S(C)(=O)=O", "prefix operator": ">", "measurement": 7.70}
{"molecule": "CC(C)(CO)n1cc(Nc2nc(-c3cnn(C4(CC#N)CN(S(C)(=O)=O)C4)c3)c3sccc3n2)cn1", "prefix operator": ">", "measurement": 7.30}
{"molecule": "N#Cc1cc(-c2ncnc(Nc3ccc(N4CCN(C5COC5)CC4)cc3)n2)ccc1O[C@H]1CCN(C(=O)c2coc(=O)[nH]2)C[C@H]1F", "prefix operator": "=", "measurement": 6.41}
{"molecule": "Cc1cc(Nc2nccc(-c3ccc(NC(=O)[C@@H]4CC4(F)F)nc3)n2)cnc1C(N)=O", "prefix operator": "=", "measurement": 7.52}
{"molecule": "N#Cc1cc(-c2ncnc(Nc3ccc(N4CCOCC4)cc3F)n2)ccc1O[C@H]1CCN(C(=O)[C@@H](O)CO)C[C@H]1F", "prefix operator": "≤", "measurement": 6.00}
{"molecule": "COc1cc(Nc2ncnc(-c3ccc(OC4CCS(=O)(=O)CC4)c(C#N)c3)n2)ccc1N1CCN(C2COC2)CC1", "prefix operator": "=", "measurement": 7.23}
{"molecule": "CCc1cc(O)c(F)cc1-c1cc2[nH]nc(-c3nc(C)c[nH]3)c2c(NCc2ccccc2N(C)S(C)(=O)=O)n1", "prefix operator": "=", "measurement": 7.73}
{"molecule": "CN(c1ccc(Cl)cc1CNc1nc(-c2cc(F)c(O)cc2CC(F)(F)F)cc2[nH]nc(C(N)=O)c12)S(C)(=O)=O", "prefix operator": "=", "measurement": 7.24}
{"molecule": "NC(=O)c1nc(-c2ccccc2)cc2c1[nH]c1cc(C(=O)N3CCOCC3)ccc12", "prefix operator": "=", "measurement": 7.96}
{"molecule": "Cn1c(NC(=O)N2CCC(N3CC(CC#N)(n4cc(-c5ncnc6[nH]ccc56)cn4)C3)CC2)nc2ccccc21", "prefix operator": "≥", "measurement": 8.00}
